System: P388 leukemia ip, CD2F1 mice, survival T/C
Measurement protocol: NCI In Vivo Anticancer Drug Screen. Data for tumor model P388 Leukemia (intraperitoneal) in CD2F1 (CDF1) mice
Condition set: endpoint: median survival time; dose: 240.0 mg/kg/injection; schedule: Q01DX005 (ip); vehicle: saline with Tween-80; higher = longer survival
Toxic doses and inconclusive results are not listed.
Reported T/C values for a set of compounds
Metric name: T/C

- CSC1=NC=C(C#N)C2=NC(c3c(F)cccc3Cl)NN12 (stereo unspecified): 90 % of control
- O=C(O)C(Cc1ccccc1)NC(c1ccccc1)P(=O)(O)O (stereo unspecified): 105 % of control
- CCN(CC)C(=O)C(F)Cl (stereo unspecified): 95 % of control
- CN(CCN1C(=O)c2cccc3cccc(c23)C1=O)CCN1C(=O)c2cccc3cccc(c23)C1=O: 88 % of control
- CCc1c[nH]c(C=O)c1CC: 99 % of control
- CCCCCCCC#CC1(CCCC)Sc2ccccc2N1C (stereo unspecified): 113 % of control

---

Test system: P388 leukemia ip, CD2F1 mice, survival T/C
Measurement protocol: NCI In Vivo Anticancer Drug Screen. Data for tumor model P388 Leukemia (intraperitoneal) in CD2F1 (CDF1) mice
Condition set: endpoint: median survival time; dose: 50.0 mg/kg/injection; schedule: Q01DX009 (ip); vehicle: Klucel (hydroxypropylcellulose) (HPC)
Method: The antitumor activity of compounds was measured in mice bearing transplantable tumors. Survival or tumor size were measured and the results are expressed as the measurement made in the treated group (T) divided by the measurement made in the vehicle treated control group (C). The tumor model used in this assay is P388 Leukemia (intraperitoneal) in CD2F1 (CDF1) mice
Toxic doses and inconclusive results are not listed. Rule for the calls: active = survival T/C of 150% or more; inactive = T/C below 125% in these data.
Classes used: active, inactive

- COc1cccc(/C=C2/C(=O)N(Cc3ccco3)SC2=S)c1OC: inactive
- Cc1ccc(S(=O)(=O)N/N=C/c2c(C)noc2C)cc1: inactive
- N#CC1C(=O)NC(=O)C(C#N)C1c1cccc(O)c1 (stereo not drawn): inactive
- CC1C2=C(CC(=O)NC2=O)C(=O)N1Cc1ccccc1 (stereo not drawn): inactive
- CC1(C)OCC(C(OS(C)(=O)=O)C2OC(C)(C)OC2COS(C)(=O)=O)O1 (stereo not drawn): inactive
- CC(C)(C)c1ccc(C(=O)Nc2ccc(S(N)(=O)=O)cc2)cc1: inactive
- COc1ccc(C2=CC(OO)(C(C)(C)C)C(=O)C(C(C)(C)C)=C2)cc1.Oc1ccccc1C=NCCC[N-]CCCN=Cc1ccccc1O.[Co] (stereo not drawn): inactive
- CCCCCCCCCCCC1NC(=S)NC(=O)C1C#N (stereo not drawn): inactive
- Cc1ncc([N+](=O)[O-])n1Cc1nncs1: inactive
- COc1cc2c(cc1[N+](=O)[O-])C(=O)C(Br)(Br)CCC2: inactive
- Nc1ncc(C2CO2)c(-c2ccccc2)n1 (stereo not drawn): inactive
- S=C(NCc1cccnc1)Nc1ccc(Cl)c(Cl)c1: inactive
- Cc1ccc(S(=O)(=O)N/N=C/C(=O)O)cc1: active
- CSc1nsc(SC)c1-c1ccc(Cl)cc1: inactive
- CC(=O)OC1OC(CS[As](C)CCO)C(OC(C)=O)C(OC(C)=O)C1OC(C)=O (stereo not drawn): inactive
- O=C1C=C(C2=C(O)c3ccccc3C2=O)c2ccccc21 (tested in a mixture with another compound): inactive
- CS(=O)(=O)OCC(COS(C)(=O)=O)(COS(C)(=O)=O)COS(C)(=O)=O: inactive
- CCn1c(=O)c2[nH]c(=S)[nH]c2n(C2CC2)c1=O: inactive
- c1cc2cc3c(cc2cc1CC1NCCc2cc4c(cc21)OCO4)OCO3 (stereo not drawn): inactive
- Cc1cc(N2CCCCC2)cc(=O)o1: inactive
- Cc1ccc2[nH]c(=S)n(CCc3ccccc3)c(=O)c2c1: inactive
- CC(C)=NNS(=O)(=O)c1ccccc1: inactive
- CN(C)/N=C1\C(=O)Nc2c(Cl)cc(Cl)cc21: inactive
